# PROTOCOL_SUMMARY: NCI Yeast Anticancer Drug Screen. Data for the mec2-1 strain (AID 157)
# RUN_CONDITIONS: S. cerevisiae mec2-1 strain, at 50.0 µM, hits give high values
The panel holds about 79,000 compounds, 15% with a hit somewhere; the sample as a whole holds those more often.
PROPERTY: growth inhibition (%)
The reply should be a number in %, with the unit left off.

I'd like to know its growth inhibition. The compound in question is CC(C)CCCC(C)C1CCC2C3CC([N+](=O)[O-])=C4CC(O[N+](=O)[O-])CCC4(C)C3CCC12C (stereo unspecified)
20.1

I'd like to know its growth inhibition. The compound in question is CC1C(NNC(N)=O)Oc2cc3c(cc2C1c1ccccc1O)OCO3 (stereo unspecified)
-25.4

I'd like to know its growth inhibition. The compound in question is CC(=O)N1CCC23C(=O)CC4C(=CCOC5CC(=O)N(c6ccccc62)C3C54)C1 (stereo unspecified)
-23.9

I'd like to know its growth inhibition. The compound in question is `Cc1cc2c(cc1C)[n+](=O)c(C(=O)CC(=O)C(=O)Nc1ccccc1C(C)C)c(C)n2[O-]`
-4.75

I'd like to know its growth inhibition. The compound in question is `CC(=O)N(C(C)=O)n1c(Cc2ccc(C)cc2)nn(C(C)=O)c1=O`
15.2

I'd like to know its growth inhibition. The compound in question is `COC(=Nc1cccc2ccccc12)Nc1cccc2ccccc12`
-3.5

I'd like to know its growth inhibition. The compound in question is `Nc1cc2[nH]c(=O)c3cc([N+](=O)[O-])ccc3c2cc1Cl`
1.3

I'd like to know its growth inhibition. The compound in question is `Oc1ccccc1-c1nc2ccccc2s1`
-37

I'd like to know its growth inhibition. The compound in question is CCOC(=O)N1C2c3ccccc3C3C(C21)N3C(=O)OCC (stereo unspecified)
-12.3

I'd like to know its growth inhibition. The compound in question is `Cc1ccc(C)c(NC(=O)/C=N/O)c1`
-5.95

I'd like to know its growth inhibition. The compound in question is N#CC(CC(=O)c1ccccc1)c1ccccc1 (stereo unspecified)
4.95

====

# PROTOCOL_SUMMARY: NCI Yeast Anticancer Drug Screen. Data for the cln2 rad14 strain (AID 165);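 further: 0% = growth equal to vehicle treated cultures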
# RUN_CONDITIONS: S. cerevisiae cln2 rad14 strain, at 50.0 µM, hits give high values
Compounds without any hit were thinned out: in the full panel of roughly 79,000, 15% have a hit.
So I've got a bunch of molecules here, and I need their growth inhibition values.
The reply should be a number in %, with the unit left off.

I'd like to know its growth inhibition. The molecule in question is `CCOC(=O)c1c[nH]c2nc(N)ccc2c1=O`
-16.4

I'd like to know its growth inhibition. The molecule in question is `COc1cc(/C=N/N2CC(=O)N(c3ccccc3)CC2=O)cc(OC)c1`
7.1

I'd like to know its growth inhibition. The molecule in question is `Cc1cc(C)c(S(=O)(=O)Nc2ccccc2F)c(C)c1`
7.3

I'd like to know its growth inhibition. The molecule in question is `O=C1CN(c2ccccc2)Cc2nc(Cl)ccc2N1`
17.4

I'd like to know its growth inhibition. The molecule in question is `CC(=O)CC(=O)Nc1cc(C)c(NC(=O)CC(C)=O)cc1C`
7.55

I'd like to know its growth inhibition. The molecule in question is `COC(=O)C1(NC(=O)C2(N3C(=O)c4ccccc4C3=O)CCCC2)CCCC1`
-9.45

====

# PROTOCOL_SUMMARY: NCI Yeast Anticancer Drug Screen. Data for the bub3 strain (AID 167)
# RUN_CONDITIONS: S. cerevisiae bub3 mutant strain, at 50.0 µM, hits give high values
# Method: Growth inhibition of yeast strains with defined genetic alterations is measured as a screen for potential anti-cancer activity. Selected strains with alterations in DNA damage repair or cell cycle control were exposed to compounds and growth inhibition was measured relative to vehicle treated controls. The strain used in this assay is bub3
The panel holds about 79,000 compounds, 15% with a hit somewhere; the sample as a whole holds those more often.
PROPERTY: growth inhibition (%)
The reply should be a number in %, with the unit left off.

I'd like to know its growth inhibition. The compound in question is `Nc1ncnc(N)c1NC(=O)c1ccc(SCc2ccccc2)cc1`
22.5

I'd like to know its growth inhibition. The compound in question is CCCCCC(=O)OCC(Br)CBr (centres undefined)
40.5

I'd like to know its growth inhibition. The compound in question is `COc1ccc(N=Cc2ccc(C=Nc3ccc(OC)cc3OC)cc2)c(OC)c1`
-5.45

I'd like to know its growth inhibition. The compound in question is `CCCCCCCCn1nnnc1N`
20.7

I'd like to know its growth inhibition. The compound in question is N/N=C1\C(=O)N(C2CCCCC2)C(=O)C1C(=O)NC1CCCCC1 (centres undefined)
-20.4

I'd like to know its growth inhibition. The compound in question is `O=C(CCC/C(CC(=O)c1ccc(Cl)cc1)=N\NC(=O)c1cc2ccccc2cc1O)Nc1cccc([N+](=O)[O-])c1`
6

I'd like to know its growth inhibition. The compound in question is `O=[N+]([O-])c1ccc2oc3cccnc3c2c1`
1.3

I'd like to know its growth inhibition. The compound in question is `CC(=O)c1cc2c(cc1C)C(C)(C)CCC2`
-16.4

I'd like to know its growth inhibition. The compound in question is CC(=O)OCC1OC(n2cc(C)c(=O)[nH]c2=O)C(NC(=O)C(Cl)(Cl)Cl)C(OC(C)=O)C1OC(C)=O (centres undefined)
0

I'd like to know its growth inhibition. The compound in question is CCCC1CCCCC1O (centres undefined)
-24.2

I'd like to know its growth inhibition. The compound in question is `Clc1cccc2nsnc12`
5.15

I'd like to know its growth inhibition. The compound in question is `COC(=O)/C(=C\c1ccccc1N)c1cc2c(cc1Br)OCO2`
44.3

I'd like to know its growth inhibition. The compound in question is `Cn1nc(-c2ccccc2)c(C(=O)/C=C/c2ccc(Cl)cc2)c(N2CCCC2)c1=O`
14.8

I'd like to know its growth inhibition. The compound in question is `Cc1cc(O)c(C(C)C)cc1CN1CCCCC1`
-2.85

I'd like to know its growth inhibition. The compound in question is CC1(C(=O)O)CCC(C(=O)Nc2ccccc2)C1(C)C (centres undefined)
-13.1

I'd like to know its growth inhibition. The compound in question is `Cc1ccc(S(=O)(=O)NNC(=O)c2cccnc2)cc1`
-5.75

I'd like to know its growth inhibition. The compound in question is `C/C(=C/C(=O)O)c1ccccc1`
-15.3

I'd like to know its growth inhibition. The compound in question is Cc1ccc(C2C(Cl)C(=O)N2NC(=O)c2ccc(N)cc2)cc1 (centres undefined)
-27.4

I'd like to know its growth inhibition. The compound in question is COC(=O)N/N=C(\C)C(CN1CCCCC1)C(C1=C(O)c2ccccc2OC1)c1ccccc1 (centres undefined)
4.9

I'd like to know its growth inhibition. The compound in question is `CCn1c2ccccc2c2c(-c3ccccc3)cc3c(c21)C(=O)N(c1ccccc1)C3=O`
-7.9

I'd like to know its growth inhibition. The compound in question is `CCOC(=O)NC(Nc1ccc(C(=O)O)cc1)(C(F)(F)F)C(F)(F)F`
4.65

I'd like to know its growth inhibition. The compound in question is `O=C(N/N=C/c1ccc(Br)cc1)N/N=C/c1ccc(Br)cc1`
-5.05

I'd like to know its growth inhibition. The compound in question is `N#Cc1cccc(N2C(=O)c3ccc(C(=O)c4ccc5c(c4)C(=O)N(c4cccc(C#N)c4)C5=O)cc3C2=O)c1`
-0.7

I'd like to know its growth inhibition. The compound in question is `NNc1ncnc2ccc(Cl)cc12`
5.8

====

# PROTOCOL_SUMMARY: NCI Yeast Anticancer Drug Screen. Data for the bub3 strain (AID 167)
# RUN_CONDITIONS: S. cerevisiae bub3 mutant strain, at 50.0 µM, hits give high values
About 79,000 compounds went through this panel and 15% of them were active in at least one assay; those are over-represented in the sample as a whole.
So I've got a bunch of molecules here, and I need their growth inhibition values.
The reply should be a number in %, with the unit left off.

I'd like to know its growth inhibition. The molecule in question is `Nc1nc(N)c(N=Nc2ccc(S(=O)(=O)NC(=O)c3ccccc3)cc2)c(=O)[nH]1`
-2.55

I'd like to know its growth inhibition. The molecule in question is `CC(C)(C)c1cc2ccc(C(N)=O)cc2c(=O)[nH]1`
-8.8

I'd like to know its growth inhibition. The molecule in question is `COC(=O)CN(CC(=O)OC)C(C)=O`
13.5

I'd like to know its growth inhibition. The molecule in question is `CCc1nc(N)nc(N)c1-c1ccc(OC)c(N)c1`
13.6

I'd like to know its growth inhibition. The molecule in question is `CC(C)OCN1COCN=C1NC#N`
-10.4

I'd like to know its growth inhibition. The molecule in question is `O=C1c2ccccc2C(=O)N1n1c(Cc2ccccc2)n[nH]c1=O`
-16.5

I'd like to know its growth inhibition. The molecule in question is CC(C)=CC1C(CO)C1(C)C (stereo unspecified)
-6.25

I'd like to know its growth inhibition. The molecule in question is CC(C)(C)[Si](C)(C)OCCC1CC2(S(=O)(=O)C3=CC=C=C=C3)ON1CC2S(=O)(=O)c1ccccc1 (stereo unspecified)
-20.4

I'd like to know its growth inhibition. The molecule in question is `CN(C)Cc1c(CC(O)(c2ccccc2)c2ccccc2)ccc2ccccc12`
-1.2

I'd like to know its growth inhibition. The molecule in question is `COc1cc2c[n+](C)c(-c3ccc(Cl)c(Cl)c3)c(OC)c2cc1OC`
14.9

I'd like to know its growth inhibition. The molecule in question is `O=C(NNC(=O)c1cccc(Br)c1)c1ccccc1`
-7.15
